# Lookup of reported self-cleavage keyed by entry
B1: HDV Ribozyme (parent)
chain: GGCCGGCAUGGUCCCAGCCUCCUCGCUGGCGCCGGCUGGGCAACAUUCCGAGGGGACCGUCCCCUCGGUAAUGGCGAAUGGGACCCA

Variants of: B1
runDescription: self-cleavage, relative activity (ratio to wild type); higher = more cleavage; co-transcriptional
Please reply with the value in numeric form only.

Would you please look over these solved cases?
U23G G39C    0.158
G55U G59U    1.02
G5C C86U    0.172

GET /value?item= G39C G73C &field=self-cleavage returns 0.151

GET /value?item= C30A C75A &field=self-cleavage returns 0.166

GET /value?item= U12A C75U &field=self-cleavage returns 0.0361

GET /value?item= C19G G73A &field=self-cleavage returns 0.021

GET /value?item= G52C C61G &field=self-cleavage returns 0.886

GET /value?item= G35A C41U &field=self-cleavage returns 0.524

GET /value?item= C49U A56U &field=self-cleavage returns 0.973
